B1: CSNK1G1 (parent)
chain: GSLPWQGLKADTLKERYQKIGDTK

variants of: B1; assay: protein stability index of a GFP-peptide fusion (GPS, HEK-293T) (PSI 1-6); higher = more stable; details: c terminus: a fixed tail appended;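 further: lentivirally expressed fusions sorted by FACS into six bins by GFP to DsRed ratio, PSI derived from sequencing read proportions per bin multiplied by bin number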
READOUT: protein stability index
// print number alone

GSLPWQGLKADTLKERYQKIGGTK [D22G] ... 3.74

Entry GSLPWQGLKADTLKERYQKFGDTK [I20F] — recorded protein stability index = 4.26

Entry GSLPWQGLKADTAKERYQKIGDTK [L13A] — recorded protein stability index = 3.96

Entry GSLKWQGLKADTLKERYQKIGDTK [P4K] — recorded protein stability index = 4.28

Entry GSLPWQGLKADTLKERYQKIGLTK [D22L] — recorded protein stability index = 3.32

Entry GSLPWQGMKADTLKERYQKIGDTK [L8M] — recorded protein stability index = 4.35

Entry GSLPWQGLKAYTLKERYQKIGDTK [D11Y] — recorded protein stability index = 3.44

Entry GSLPWQGLKADTLMERYQKIGDTK [K14M] — recorded protein stability index = 3.36
